Here's what we have: Ki numbers for 5-HT2 (Sus scrofa).
Numbers only here, please. The scale is nM.

>>> observed_result("O=C(NCCCCN1CCN(c2cccc3c2OCCC3)CC1)c1cc2ccccc2[nH]1 [Example 4]")
110

Moving on to another compound below.
Req: Recall the recorded Ki for O=C(NCCCCN1CCN(c2cccc3c2OCC3)CC1)c1cc2ccccc2s1 [Example 1] with 5-HT2 (Sus scrofa) and state it.
Sequence (P50129 whole entry): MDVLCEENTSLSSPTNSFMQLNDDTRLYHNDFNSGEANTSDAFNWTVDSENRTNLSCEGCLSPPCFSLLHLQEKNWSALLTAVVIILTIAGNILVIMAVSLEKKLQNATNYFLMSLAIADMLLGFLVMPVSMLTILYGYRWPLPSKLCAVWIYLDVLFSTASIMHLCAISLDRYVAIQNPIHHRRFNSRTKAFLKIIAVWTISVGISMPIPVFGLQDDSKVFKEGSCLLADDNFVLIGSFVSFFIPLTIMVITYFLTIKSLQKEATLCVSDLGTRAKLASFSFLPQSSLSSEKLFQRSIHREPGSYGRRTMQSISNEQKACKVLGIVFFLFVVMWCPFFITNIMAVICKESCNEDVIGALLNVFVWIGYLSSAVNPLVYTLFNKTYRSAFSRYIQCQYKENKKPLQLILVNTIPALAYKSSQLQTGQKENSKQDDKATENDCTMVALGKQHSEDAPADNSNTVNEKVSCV
Resp: 100

----------
- Tested system: human D2long (Homo sapiens)
- Sequence (P14416 whole entry): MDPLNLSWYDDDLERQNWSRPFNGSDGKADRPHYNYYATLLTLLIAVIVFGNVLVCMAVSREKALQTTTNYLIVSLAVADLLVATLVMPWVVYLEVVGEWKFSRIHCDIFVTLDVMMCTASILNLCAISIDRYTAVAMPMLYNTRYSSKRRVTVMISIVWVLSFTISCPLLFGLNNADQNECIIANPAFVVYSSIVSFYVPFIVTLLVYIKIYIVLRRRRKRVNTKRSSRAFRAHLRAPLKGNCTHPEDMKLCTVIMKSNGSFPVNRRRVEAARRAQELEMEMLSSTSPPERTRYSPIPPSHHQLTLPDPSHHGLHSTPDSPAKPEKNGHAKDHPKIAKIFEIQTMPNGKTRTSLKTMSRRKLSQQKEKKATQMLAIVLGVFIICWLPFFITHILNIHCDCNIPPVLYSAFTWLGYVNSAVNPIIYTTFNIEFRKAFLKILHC
Readings of Ki for the listed compounds
Numbers only here, please. The scale is nM.

Req: # get_value(readout='Ki', item= O=C(NCCCCN1CCN(c2cccc3c2OCCC3)CC1)c1cc2ccccc2[nH]1 [Example 4] )
Resp: 42

Req: # get_value(readout='Ki', item= O=C(NCCCCN1CCN(c2cccc3c2OCC3)CC1)c1cc2ccccc2s1 [Example 1] )
Resp: 73

----------
- Tested system: human D4.4 (Homo sapiens)
- Sequence (P21917 whole entry): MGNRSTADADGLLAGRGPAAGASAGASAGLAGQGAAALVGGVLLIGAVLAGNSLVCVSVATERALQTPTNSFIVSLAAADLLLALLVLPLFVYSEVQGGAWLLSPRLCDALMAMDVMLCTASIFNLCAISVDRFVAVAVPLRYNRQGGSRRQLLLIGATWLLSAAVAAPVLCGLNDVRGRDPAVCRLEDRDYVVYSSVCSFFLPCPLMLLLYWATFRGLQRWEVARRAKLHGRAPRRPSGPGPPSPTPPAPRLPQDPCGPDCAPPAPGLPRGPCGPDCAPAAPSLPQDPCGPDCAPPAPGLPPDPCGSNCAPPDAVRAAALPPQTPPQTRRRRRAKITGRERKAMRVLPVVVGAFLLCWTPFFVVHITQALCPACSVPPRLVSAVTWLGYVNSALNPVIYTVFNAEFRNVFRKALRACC
Measurement type: pKi
Give only the number. pKi is defined as minus log10 of concentration in molar units.

Req: Recall the recorded pKi for `O=C(NCCCCN1CCN(c2cccc3c2OCC3)CC1)c1cc2ccccc2s1` with human D4.4 (Homo sapiens) and state it.
Resp: 7.19

----------
- Tested system: 5-HT1a (Sus scrofa, UniProt A0A4X1UTF5)
- Sequence (A0A4X1UTF5 1-422): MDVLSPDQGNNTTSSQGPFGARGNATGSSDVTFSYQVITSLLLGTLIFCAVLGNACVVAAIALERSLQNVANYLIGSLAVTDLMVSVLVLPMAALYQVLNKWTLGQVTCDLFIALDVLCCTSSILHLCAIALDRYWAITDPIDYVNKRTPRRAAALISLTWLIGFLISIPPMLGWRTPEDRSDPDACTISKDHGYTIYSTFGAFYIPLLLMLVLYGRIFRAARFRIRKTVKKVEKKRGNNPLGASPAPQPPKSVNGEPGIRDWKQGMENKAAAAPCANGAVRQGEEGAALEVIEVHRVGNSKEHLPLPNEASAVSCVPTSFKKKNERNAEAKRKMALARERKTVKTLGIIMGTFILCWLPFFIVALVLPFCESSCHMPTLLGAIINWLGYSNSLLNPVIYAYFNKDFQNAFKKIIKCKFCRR
Measurement type: Ki (µM)
Numbers only here, please. The scale is µM.

Req: Recall the recorded Ki for `O=C(NCCCCN1CCN(c2cccc3c2OCCC3)CC1)c1cc2ccccc2s1` with 5-HT1a (Sus scrofa, UniProt A0A4X1UTF5) and state it.
Resp: 0.017

Req: Recall the recorded Ki for `O=C(NCCCCN1CCN(c2cccc3c2OCCC3)CC1)c1cc2ccccc2[nH]1` with 5-HT1a (Sus scrofa, UniProt A0A4X1UTF5) and state it.
Resp: 0.02

Req: Recall the recorded Ki for `O=C(NCCCCN1CCN(c2cccc3c2OCC3)CC1)c1cc2ccccc2s1` with 5-HT1a (Sus scrofa, UniProt A0A4X1UTF5) and state it.
Resp: 0.018

----------
Readings of Ki for the listed molecules
- Tested system: human D3 (Homo sapiens, UniProt P35462)
- Construct: expressed in transfected cells
- Sequence (P35462 whole entry): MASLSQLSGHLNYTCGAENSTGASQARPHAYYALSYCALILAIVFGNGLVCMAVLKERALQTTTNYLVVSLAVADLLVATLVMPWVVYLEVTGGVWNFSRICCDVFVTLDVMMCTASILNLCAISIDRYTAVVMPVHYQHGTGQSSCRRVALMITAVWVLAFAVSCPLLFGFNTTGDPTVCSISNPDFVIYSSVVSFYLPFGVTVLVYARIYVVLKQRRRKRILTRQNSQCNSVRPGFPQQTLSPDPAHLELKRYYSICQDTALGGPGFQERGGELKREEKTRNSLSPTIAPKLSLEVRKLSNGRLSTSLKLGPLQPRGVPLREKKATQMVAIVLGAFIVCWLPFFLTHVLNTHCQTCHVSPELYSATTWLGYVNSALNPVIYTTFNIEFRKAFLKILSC
- Protocol details: Radioligand binding, human D3 in CHO cell membranes, [3H]spiperone
- Condition context: human receptor in CHO membranes, [3H]spiperone; average of 2-6 experiments in triplicate; read-out: Receptor binding Ki D3
Numbers only here, please. The scale is nM.

Some entries whose results are on file:
>>> observed_result("O=C(NCCCCN1CCN(c2cccc3c2OCCC3)CC1)c1cc2ccccc2[nH]1 [Example 4]")
0.17
>>> observed_result("O=C(NCCCCN1CCN(c2cccc3c2OCC3)CC1)c1cc2ccccc2s1 [Example 1]")
0.31
>>> observed_result("O=C(NCCCCN1CCN(c2cccc3c2OCC3)CC1)c1cc2ccccc2[nH]1 [Example 2]")
0.16

Moving on to another molecule below.
Req: # get_value(readout='Ki', item= O=C(NCCCCN1CCN(c2cccc3c2OCCC3)CC1)c1cc2ccccc2s1 [Example 3] )
Resp: 0.35
